# credit: patent US11014911B2

# system: CDK2/Cyclin E1 full length (Homo sapiens (Human))
# test.details: CDK2/Cyclin E1 full length mobility shift assay
rule met if Ki is below 1 nM. rule not met if not; exact matches included in rule not met.

Determine whether this compound shows Ki lower than 1 nM (ties excluded): Cc1c(CC(=O)Nc2cc([C@H]3CC[C@@H](OC(=O)NC(C)CC(F)(F)F)C3)[nH]n2)cnn1C (single isomer, unassigned) [Example 400]
rule not met

Determine whether this compound shows Ki lower than 1 nM (ties excluded): C[C@H]1CCCN1C(=O)O[C@@H]1CC[C@H](c2cc(NC(=O)Cc3cnc4ncnn4c3)n[nH]2)C1
rule met

Determine whether this compound shows Ki lower than 1 nM (ties excluded): CC[C@H](C)NC(=O)O[C@@H]1CC[C@H](c2cc(NC(=O)Cc3cnn(C(C)C)c3)n[nH]2)C1
rule met

Determine whether this compound shows Ki lower than 1 nM (ties excluded): CCC(O)CNC(=O)O[C@@H]1CC[C@H](c2cc(NC(=O)Cc3cc(F)cc(F)c3)n[nH]2)C1 (single isomer, unassigned) [Example 542]
rule not met

Determine whether this compound shows Ki lower than 1 nM (ties excluded): COc1cc(CC(=O)Nc2cc([C@H]3CC[C@@H](OC(=O)N[C@@H](C)[C@H](C)F)C3)[nH]n2)ccn1 (single isomer, unassigned) [Example 385]
rule met

Determine whether this compound shows Ki lower than 1 nM (ties excluded): CCCNC(=O)O[C@@H]1CC[C@H](c2cc(NC(=O)Cc3ccccc3S(=O)(=O)C(C)C)n[nH]2)C1
rule not met

Determine whether this compound shows Ki lower than 1 nM (ties excluded): O=C(Cc1ccno1)Nc1cc([C@H]2CC[C@@H](OC(=O)NCC(F)F)C2)[nH]n1
rule not met

Determine whether this compound shows Ki lower than 1 nM (ties excluded): O=C(Cc1ccon1)Nc1cc([C@H]2CC[C@@H](OC(=O)NC3(CC(F)(F)F)CC3)C2)[nH]n1
rule met
